# System: ORYSA
# test: Post-emergence herbicidal effect and crop plant compatibility, greenhouse pot test
# Assay type: in vivo, Oryza sativa
# measurementParameters: 80 g/ha, visual rating about 3 weeks after treatment, crop plant
observedProperty: Post-emergence effect against ORYSA

| molecule | Post-emergence effect against ORYSA |
| --- | --- |
| COC(=O)C(OC)Oc1nn(-c2ccc(Cl)cc2F)c(-c2ccc(F)cc2F)c1Br (stereo not shown) | 0% |
| CCOC(=O)C(OCC)Oc1nn(-c2ccc(Cl)cc2F)c(-c2ccc(F)cc2F)c1Br (stereo not shown) | 10% |
| COC(=O)C(OC)Oc1nn(-c2cccc(Cl)c2F)c(-c2cncc(F)c2)c1I (stereo not shown) | 0% |

For the next question, use this molecule.
For record COC(=O)C(OC)Oc1nn(-c2cccc(Cl)c2F)c(-c2cncc(F)c2)c1Br (stereo not shown) the listed Post-emergence effect against ORYSA is 20%

* * *

# Tested on: LOLRI
# test: Post-emergence herbicidal effect, greenhouse pot test
# Assay type: in vivo, Lolium rigidum
# measurementParameters: Lolium rigidum, 504 h, 320 g/ha, read-out: Post-emergence effect against LOLRI in %
Assign pest or weed control at 320 g/ha to each entry below.
Numbers only, in %.

# example entries with known answers
| compound | observedProperty | assayValue |
| --- | --- | --- |
| CCOC(=O)C(OC)Oc1nn(-c2ccccc2F)c(-c2ccc(F)nc2)c1Br (stereo not shown) | pest or weed control at 320 g/ha | 90 |
| COC(=O)C(OC)Oc1nn(-c2ncccc2F)c(-c2ccc(F)nc2)c1Br (stereo not shown) | pest or weed control at 320 g/ha | 90 |
| COC(=O)C(OC)Oc1nn(-c2cnccn2)c(-c2ccc(F)nc2)c1Cl (stereo not shown) | pest or weed control at 320 g/ha | 80 |

Now consider the entry below.
So for COC(Oc1nn(-c2ccccc2F)c(-c2ccc(F)nc2)c1Br)C(=O)O (stereo not shown) , the logged pest or weed control at 320 g/ha turned out to be 90

* * *

Please go through the items and note down their Post-emergence effect at 20 g/ha against ZEAMX in %.
# System: ZEAMX
# test: Post-emergence herbicidal effect and crop plant compatibility, greenhouse pot test
# Type: in vivo, Zea mays
# measurementParameters: 20 g/ha, one-leaf stage, rated visually after about 3 weeks vs untreated controls
The reply should consist of the numeric value with the unit placed after it.

Some molecules with recorded Post-emergence effect at 20 g/ha against ZEAMX in %:
| molecule | assayValue |
| --- | --- |
| COC(=O)CCOC(=O)C(OC)Oc1nn(-c2ncccc2F)c(-c2ccc(F)nc2)c1C1CC1 (single isomer, unassigned) [Example I-80] | 20% |
| COC(=O)CCOC(=O)C(OC)Oc1nn(-c2ccccc2F)c(-c2ccc(F)nc2)c1C1CC1 (single isomer, unassigned) [Example I-75] | 0% |
| COC(=O)C(C)COC(=O)C(OC)Oc1nn(-c2ccccc2F)c(-c2ccc(F)nc2)c1Br (racemic) [Example I-10] | 20% |
| COC(=O)CCOC(=O)C(OC)Oc1nn(-c2ncccc2F)c(-c2cncc(F)c2)c1C1CC1 (single isomer, unassigned) [Example I-77] | 0% |
| COC(=O)CCOC(=O)C(OC)Oc1nn(-c2ccccc2F)c(-c2ccc(F)nc2)c1Br (single isomer, unassigned) [Example I-20] | 0% |

Now look at this entry.
Post-emergence effect at 20 g/ha against ZEAMX in % reading for COC(Oc1nn(-c2ccccc2F)c(-c2ccc(F)nc2)c1Br)C(=O)O (stereo not drawn) [Example I-12] : 0%

Origin of values: patent US20240391862A1
